# credit: patent US12187742B2

# target: ATM (Homo sapiens (Human), UniProt Q13315)
# Sequence (Q13315 whole entry): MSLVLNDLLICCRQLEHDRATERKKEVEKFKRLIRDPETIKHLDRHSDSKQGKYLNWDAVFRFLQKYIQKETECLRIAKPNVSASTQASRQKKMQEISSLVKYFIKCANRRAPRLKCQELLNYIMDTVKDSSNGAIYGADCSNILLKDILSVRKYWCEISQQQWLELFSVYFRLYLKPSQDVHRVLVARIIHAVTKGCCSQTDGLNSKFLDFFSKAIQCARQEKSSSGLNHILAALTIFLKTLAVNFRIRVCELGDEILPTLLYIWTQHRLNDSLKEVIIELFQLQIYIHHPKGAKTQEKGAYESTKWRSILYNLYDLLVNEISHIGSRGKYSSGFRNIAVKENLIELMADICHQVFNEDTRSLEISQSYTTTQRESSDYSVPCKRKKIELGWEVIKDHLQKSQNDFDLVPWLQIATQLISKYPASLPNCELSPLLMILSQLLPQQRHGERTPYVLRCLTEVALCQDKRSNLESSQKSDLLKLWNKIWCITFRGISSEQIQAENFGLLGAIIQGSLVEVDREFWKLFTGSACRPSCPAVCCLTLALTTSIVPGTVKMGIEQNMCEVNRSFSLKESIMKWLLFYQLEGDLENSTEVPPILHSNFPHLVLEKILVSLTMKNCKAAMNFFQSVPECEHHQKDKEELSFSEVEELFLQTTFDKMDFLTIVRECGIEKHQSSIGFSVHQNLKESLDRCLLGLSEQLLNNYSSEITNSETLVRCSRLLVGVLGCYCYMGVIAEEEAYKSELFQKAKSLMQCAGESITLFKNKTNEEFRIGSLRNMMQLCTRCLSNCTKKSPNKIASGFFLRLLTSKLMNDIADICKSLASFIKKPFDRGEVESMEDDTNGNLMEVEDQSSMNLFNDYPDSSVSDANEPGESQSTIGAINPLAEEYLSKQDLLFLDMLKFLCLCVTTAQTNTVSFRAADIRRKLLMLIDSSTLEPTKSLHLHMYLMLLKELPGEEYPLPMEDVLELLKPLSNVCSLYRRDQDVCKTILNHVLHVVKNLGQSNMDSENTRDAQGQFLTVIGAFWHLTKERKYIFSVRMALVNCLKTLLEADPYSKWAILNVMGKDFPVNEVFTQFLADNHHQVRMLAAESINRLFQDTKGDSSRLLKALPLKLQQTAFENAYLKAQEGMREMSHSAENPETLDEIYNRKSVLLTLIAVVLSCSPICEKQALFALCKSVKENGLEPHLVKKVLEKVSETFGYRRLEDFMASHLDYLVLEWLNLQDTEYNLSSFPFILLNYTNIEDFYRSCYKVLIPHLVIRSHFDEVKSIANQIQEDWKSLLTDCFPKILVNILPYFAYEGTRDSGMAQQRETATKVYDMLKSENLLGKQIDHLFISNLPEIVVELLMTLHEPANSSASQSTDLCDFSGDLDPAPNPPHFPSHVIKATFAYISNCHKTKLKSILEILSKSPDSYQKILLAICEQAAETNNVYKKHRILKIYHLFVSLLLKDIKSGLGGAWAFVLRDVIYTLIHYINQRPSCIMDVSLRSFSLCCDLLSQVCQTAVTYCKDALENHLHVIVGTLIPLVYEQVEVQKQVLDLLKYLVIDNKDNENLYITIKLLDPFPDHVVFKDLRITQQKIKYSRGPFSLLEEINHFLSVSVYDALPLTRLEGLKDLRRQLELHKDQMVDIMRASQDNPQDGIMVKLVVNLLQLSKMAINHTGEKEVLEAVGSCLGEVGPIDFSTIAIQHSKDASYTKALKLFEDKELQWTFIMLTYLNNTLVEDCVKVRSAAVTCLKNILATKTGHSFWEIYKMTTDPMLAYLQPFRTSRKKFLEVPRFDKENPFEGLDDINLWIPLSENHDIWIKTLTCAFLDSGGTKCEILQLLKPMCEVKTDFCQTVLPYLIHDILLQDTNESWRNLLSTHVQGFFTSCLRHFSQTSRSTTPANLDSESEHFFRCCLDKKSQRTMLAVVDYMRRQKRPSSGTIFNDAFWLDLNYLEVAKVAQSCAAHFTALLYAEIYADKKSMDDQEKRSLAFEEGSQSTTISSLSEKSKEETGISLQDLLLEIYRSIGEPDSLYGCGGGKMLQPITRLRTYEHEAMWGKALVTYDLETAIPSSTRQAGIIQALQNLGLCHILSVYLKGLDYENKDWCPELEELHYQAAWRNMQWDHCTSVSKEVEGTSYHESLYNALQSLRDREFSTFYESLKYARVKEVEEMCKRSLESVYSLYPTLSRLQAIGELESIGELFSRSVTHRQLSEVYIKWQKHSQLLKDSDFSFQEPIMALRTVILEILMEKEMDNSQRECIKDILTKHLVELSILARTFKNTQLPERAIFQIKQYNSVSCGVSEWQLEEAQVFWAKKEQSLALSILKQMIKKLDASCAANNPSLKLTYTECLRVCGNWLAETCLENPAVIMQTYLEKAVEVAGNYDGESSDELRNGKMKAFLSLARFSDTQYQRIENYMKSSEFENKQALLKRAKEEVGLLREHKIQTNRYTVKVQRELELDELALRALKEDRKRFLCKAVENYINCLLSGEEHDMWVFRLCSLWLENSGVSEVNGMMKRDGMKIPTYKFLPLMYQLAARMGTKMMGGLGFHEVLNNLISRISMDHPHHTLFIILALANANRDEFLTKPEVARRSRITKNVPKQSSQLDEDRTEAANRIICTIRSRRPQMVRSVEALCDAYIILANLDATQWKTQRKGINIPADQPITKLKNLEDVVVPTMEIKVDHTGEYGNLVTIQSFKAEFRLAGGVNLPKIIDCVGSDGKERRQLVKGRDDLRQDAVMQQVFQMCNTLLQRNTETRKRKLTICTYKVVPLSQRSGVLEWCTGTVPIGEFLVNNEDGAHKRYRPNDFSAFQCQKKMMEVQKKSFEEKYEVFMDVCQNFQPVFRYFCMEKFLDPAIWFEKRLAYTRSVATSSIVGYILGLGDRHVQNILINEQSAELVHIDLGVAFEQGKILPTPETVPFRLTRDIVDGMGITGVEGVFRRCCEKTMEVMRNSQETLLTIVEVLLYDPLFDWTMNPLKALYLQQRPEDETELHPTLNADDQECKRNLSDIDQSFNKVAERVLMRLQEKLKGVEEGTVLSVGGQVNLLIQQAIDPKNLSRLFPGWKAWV
# experimental_details: ATM in Cell Western Assay (pKAP1 in etoposide-treated MCF-7 cells)
# Format: cell-based
# condition_label: MCF-7 cells, etoposide 100 μM, 1 hr, pKAP1 readout
Where a name gives a salt, the structure may show the parent alone.
Known IC50 of a selection of molecules
measured_quantity: IC50

- COCCN(C)CCCOc1ncc(-c2cc3c4c(cnc3cc2F)N(C)C(=O)C42CCC2)cc1NS(=O)(=O)N1CCOCC1: 1 to 100 nM
- CN1C(=O)C2(CCC2)c2c1cnc1ccc(-c3cnc(OCCCN4CCOCC4)c(NS(=O)(=O)N(C)C)c3)cc21: 1 to 100 nM
- COc1ncc(-c2ccc3ncc4c(c3c2)C2(CC2)C(=O)N4C)cc1C(C)(C)O: > 100 nM
- CN(C)CCCOc1ncc(-c2ccc3ncc4c(c3c2)C2(CC2)C(=O)N4C)cc1NS(=O)(=O)c1cnn(C)c1: 1 to 100 nM
- CNC1CN(c2ncc(-c3cc4c5c(cnc4cc3F)N(C)C(=O)C53CCC3)cc2NS(=O)(=O)C2CC2)C1: 0.5 to 1 nM
- CN(C)CCCOc1ncc(-c2ccc3ncc4c(c3c2)C2(CCC2)C(=O)N4C)cc1NS(=O)(=O)C(F)(F)F: 1 to 100 nM
- CN(C)CCCOc1ncc(-c2ccc3ncc4c(c3c2)C2(CCC2)C(=O)N4C)cc1NS(=O)(=O)c1ccc(C(F)(F)F)nc1 [Example 146, hydrochloride]: 1 to 100 nM
